Some molecules, each annotated with its measured IC50.
Test system: 186277-243-T-J2-PDC complex spheroid growth
test: Anticancer human tumor 186277-243-T-J2-PDC patient-derived colon adenocarcinoma cell line growth inhibition [AhR]
run conditions: curve of first compound; second compound 1 µM
measure: IC50 (nM)

>>> numeric_readout("CC1COCCN1c1cc(-c2ccnn2C)c2ccnc(-c3ccn[nH]3)c2n1 (stereo not given) + Cc1cncc(-c2nc(NCCc3c[nH]c4ccccc34)c3ncn(C(C)C)c3n2)c1")
80.9
>>> numeric_readout("CC1COCCN1c1cc(-c2ccnn2C)c2ccnc(-c3ccn[nH]3)c2n1 (stereo not given) + Cc1ccccc1N=Nc1ccc(NC(=O)c2ccnn2C)c(C)c1")
88.8

---

Test system: 186277-243-T-J2-PDC complex spheroid growth
test: Anticancer human tumor 186277-243-T-J2-PDC cell line growth inhibition [AhR];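 note: spheroids exposed to compounds for seven days before the viability read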
run conditions: curve of first compound; second compound 0.1 µM
measure: IC50

>>> result("COc1cc(Nc2ncc3c(n2)-c2ccc(Cl)cc2C(c2c(F)cccc2OC)=NC3)ccc1C(=O)O + Cc1cncc(-c2nc(NCCc3c[nH]c4ccccc34)c3ncn(C(C)C)c3n2)c1")
"> 10000 nM"
>>> result("COc1cc(Nc2ncc3c(n2)-c2ccc(Cl)cc2C(c2c(F)cccc2OC)=NC3)ccc1C(=O)O + CC(CO)NC(=O)c1cc(-c2ccc(Cl)cc2)nn(-c2cnn(C)c2)c1=O")
"< 31.6 nM"
>>> result("COc1ccc([C@@H](O)c2cc(-c3ncnc4cc(N5CCOCC5)ccc34)c(F)cc2Cl)nn1 + Cc1cncc(-c2nc(NCCc3c[nH]c4ccccc34)c3ncn(C(C)C)c3n2)c1")
"> 10000 nM"
>>> result("Nc1ncn(C2CC(O)C(CO)O2)c(=O)n1 (stereo not given) + CC(CO)NC(=O)c1cc(-c2ccc(Cl)cc2)nn(-c2cnn(C)c2)c1=O")
"> 1000 nM"
>>> result("Nc1ccn(C2OC(CO)C(O)C2(F)F)c(=O)n1 (stereo not given) + CC(CO)NC(=O)c1cc(-c2ccc(Cl)cc2)nn(-c2cnn(C)c2)c1=O")
"< 31.6 nM"

---

Some compounds, each annotated with its measured viability, T/C.
System: 186277-243-T-J2-PDC complex spheroid growth
test: Anticancer human tumor 186277-243-T-J2-PDC cell line growth inhibition [AhR];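 note: spheroids exposed to compounds for seven days before the viability read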;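 for viability, T/C: luminescent signal used as a stand-in for viable cell amount; 100% = DMSO vehicle control wells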
run conditions: second compound 1 µM; first compound 1 µM; stronger effect = lower value
measure: viability, T/C (%)

>>> numeric_readout("COc1ccc([C@@H](O)c2cc(-c3ncnc4cc(N5CCOCC5)ccc34)c(F)cc2Cl)nn1 + Cc1cncc(-c2nc(NCCc3c[nH]c4ccccc34)c3ncn(C(C)C)c3n2)c1")
113
>>> numeric_readout("COc1cc(Nc2ncc3c(n2)-c2ccc(Cl)cc2C(c2c(F)cccc2OC)=NC3)ccc1C(=O)O + Cc1cncc(-c2nc(NCCc3c[nH]c4ccccc34)c3ncn(C(C)C)c3n2)c1")
67.1
>>> numeric_readout("COc1cc(C2c3cc4c(cc3C(OC3OC5COC(C)OC5C(O)C3O)C3COC(=O)C23)OCO4)cc(OC)c1O (stereo not drawn) + CC(CO)NC(=O)c1cc(-c2ccc(Cl)cc2)nn(-c2cnn(C)c2)c1=O")
20.7

---

Tested on: 186277-243-T-J2-PDC complex spheroid growth
test: Anticancer human tumor 186277-243-T-J2-PDC cell line growth inhibition [AhR];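 note: spheroids exposed to compounds for seven days before the viability read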;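 for viability, T/C: luminescent signal used as a stand-in for viable cell amount; 100% = DMSO vehicle control wells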
run conditions: second compound 3.16 µM; first compound 10 µM; stronger effect = lower value
Mark yes only when viability, T/C stays strictly below 10%. Values equal to the cut-off are no.

>>> class_label("NS(=O)(=O)OCC1CC(n2ccc3c(NC4CCc5ccccc54)ncnc32)CC1O (configuration not stated) + Cc1ccccc1N=Nc1ccc(NC(=O)c2ccnn2C)c(C)c1")
"yes"
>>> class_label("COc1cccc2c1C(=O)c1c(O)c3c(c(O)c1C2=O)CC(O)(C(=O)CO)CC3OC1CC(N)C(O)C(C)O1 (configuration not stated) + Cc1ccccc1N=Nc1ccc(NC(=O)c2ccnn2C)c(C)c1")
"yes"
>>> class_label("Nc1ccn(C2OC(CO)C(O)C2(F)F)c(=O)n1 (configuration not stated) + Cc1ccccc1N=Nc1ccc(NC(=O)c2ccnn2C)c(C)c1")
"no"
>>> class_label("O=C(C=Cc1cccc(S(=O)(=O)Nc2ccccc2)c1)NO + Cc1cncc(-c2nc(NCCc3c[nH]c4ccccc34)c3ncn(C(C)C)c3n2)c1")
"yes"
>>> class_label("Nc1ccccc1NC(=O)c1ccc(CNC(=O)OCc2cccnc2)cc1 + Cc1cncc(-c2nc(NCCc3c[nH]c4ccccc34)c3ncn(C(C)C)c3n2)c1")
"yes"
>>> class_label("COc1cccc2c1C(=O)c1c(O)c3c(c(O)c1C2=O)CC(O)(C(=O)CO)CC3OC1CC(N)C(O)C(C)O1 (configuration not stated) + Cc1cncc(-c2nc(NCCc3c[nH]c4ccccc34)c3ncn(C(C)C)c3n2)c1")
"yes"
>>> class_label("O=C(c1cc(Cc2n[nH]c(=O)c3ccccc23)ccc1F)N1CCN(C(=O)C2CC2)CC1 + Cc1ccccc1N=Nc1ccc(NC(=O)c2ccnn2C)c(C)c1")
"no"
>>> class_label("Nc1ccccc1NC(=O)c1ccc(CNC(=O)OCc2cccnc2)cc1 + Cc1ccccc1N=Nc1ccc(NC(=O)c2ccnn2C)c(C)c1")
"no"
>>> class_label("Nc1ccn(C2OC(CO)C(O)C2(F)F)c(=O)n1 (configuration not stated) + Cc1cncc(-c2nc(NCCc3c[nH]c4ccccc34)c3ncn(C(C)C)c3n2)c1")
"no"
>>> class_label("CC1(C)CCC(CN2CCN(c3ccc(C(=O)NS(=O)(=O)c4ccc(NCC5CCOCC5)c([N+](=O)[O-])c4)c(Oc4cnc5[nH]ccc5c4)c3)CC2)=C(c2ccc(Cl)cc2)C1 + Cc1cncc(-c2nc(NCCc3c[nH]c4ccccc34)c3ncn(C(C)C)c3n2)c1")
"no"
>>> class_label("COc1cc(Nc2ncc3c(n2)-c2ccc(Cl)cc2C(c2c(F)cccc2OC)=NC3)ccc1C(=O)O + CC(CO)NC(=O)c1cc(-c2ccc(Cl)cc2)nn(-c2cnn(C)c2)c1=O")
"no"
